Measured values drawn from patent US9540392B2 for this set.

system-under-test: human full-length MKNK1 (Homo sapiens, UniProt Q9BUB5, T385D)
Construct: GST (N); purchased Carna Biosciences 02-145; host or cells: insect cells (baculovirus expression system)
Sequence (Q9BUB5 1-424 isoform Q9BUB5-2 T344D): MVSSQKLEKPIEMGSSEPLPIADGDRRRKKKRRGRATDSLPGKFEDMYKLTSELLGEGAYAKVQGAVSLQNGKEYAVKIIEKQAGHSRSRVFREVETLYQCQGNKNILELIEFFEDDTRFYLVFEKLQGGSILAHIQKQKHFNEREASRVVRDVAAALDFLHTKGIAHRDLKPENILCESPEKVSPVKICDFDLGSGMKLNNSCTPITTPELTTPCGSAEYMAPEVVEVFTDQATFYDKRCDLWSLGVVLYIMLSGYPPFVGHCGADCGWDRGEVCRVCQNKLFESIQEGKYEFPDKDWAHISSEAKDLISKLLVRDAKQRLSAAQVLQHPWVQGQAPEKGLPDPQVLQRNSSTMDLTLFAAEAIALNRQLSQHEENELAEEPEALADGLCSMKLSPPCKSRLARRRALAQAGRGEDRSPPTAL
protocol-notes: MKNK1 kinase high ATP assay (TR-FRET)
Assay type: biochemical
recorded-conditions: 2 mM ATP, after preincubation with MKNK1; read-out: MKNK1 IC50 (MKNK1 high ATP)
Can you tell me pIC50 for the items I'm about to list?
// scale note: pIC50 = -log10(conc_M); give the bare number

CCN(CCC#N)C(=O)C1CCc2c(sc3ncnc(Nc4ccc5[nH]ncc5c4)c23)C1 (racemic) has a reported pIC50 of 8.22

CCN(CCO)C(=O)C1CCc2c(sc3ncnc(Nc4cc5cn[nH]c5cc4OC)c23)C1 (racemic) has a reported pIC50 of 9.40

CC(C)NC(=O)C1CCc2c(sc3ncnc(Nc4ccc5[nH]ncc5c4)c23)C1 (centres unmarked) has a reported pIC50 of 8.40

CCOc1cc2[nH]ncc2cc1Nc1ncnc2sc3c(c12)CCC(C(=O)O)C3 (racemic) has a reported pIC50 of 7.14

O=C(NCC1CC1)C1CCc2c(sc3ncnc(Nc4ccc5[nH]ncc5c4)c23)C1 (centres unmarked) has a reported pIC50 of 8.22

O=C(Nc1cccnc1)C1CCc2c(sc3ncnc(Nc4ccc5[nH]ncc5c4)c23)C1 (racemic) has a reported pIC50 of 8.12

CCCOc1cc2[nH]ncc2cc1Nc1ncnc2sc3c(c12)CCC(C(=O)N(C)C)C3 (racemic) has a reported pIC50 of 8.57

O=C(O)C1CCc2c(sc3ncnc(Nc4ccc5[nH]ncc5c4)c23)C1 (centres unmarked) has a reported pIC50 of 7.59

---

Can you tell me IC50 for the items I'm about to list?
system-under-test: human full-length MKNK1 (Homo sapiens, UniProt Q9BUB5, T385D)
Construct: GST (N); purchased Carna Biosciences 02-145; host or cells: insect cells (baculovirus expression system)
protocol-notes: MKNK1 kinase high ATP assay (TR-FRET)
Assay type: biochemical
recorded-conditions: 2 mM ATP, after preincubation with MKNK1; read-out: MKNK1 IC50 (MKNK1 high ATP)
Could you give me the number in nM? Just the number is fine.

Cc1ccc(CNC(=O)C2CCc3c(sc4ncnc(Nc5ccc6[nH]ncc6c5)c34)C2)cc1 (stereo not drawn) has a reported IC50 of 3

Cn1ccnc1CNC(=O)C1CCc2c(sc3ncnc(Nc4ccc5[nH]ncc5c4)c23)C1 (racemic) has a reported IC50 of 16.8

N#Cc1ccc(N2CCN(C(=O)C3CCc4c(sc5ncnc(Nc6ccc7[nH]ncc7c6)c45)C3)CC2)cc1 (racemic) has a reported IC50 of 17.4

COc1cccc(CNC(=O)C2CCc3c(sc4ncnc(Nc5ccc6[nH]ncc6c5)c34)C2)c1 (stereo not drawn) has a reported IC50 of 2

CN1CCCN(C(=O)C2CCc3c(sc4ncnc(Nc5ccc6[nH]ncc6c5)c34)C2)CC1 (racemic) has a reported IC50 of 13.2

CCOc1cc2[nH]ncc2cc1Nc1ncnc2sc3c(c12)CCC(C(=O)N1CCC(N(C)C)C1)C3 (racemic) has a reported IC50 of 0.4

CNC(=O)C1CCc2c(sc3ncnc(Nc4ccc5[nH]ncc5c4)c23)C1 (stereo not drawn) has a reported IC50 of 10

CCOc1cc2[nH]ncc2cc1Nc1ncnc2sc3c(c12)CCC(C(=O)N(C)CCNC(=O)OC(C)(C)C)C3 (racemic) has a reported IC50 of 0.4

Cc1cccc(N2CCN(C(=O)C3CCc4c(sc5ncnc(Nc6ccc7[nH]ncc7c6)c45)C3)CC2)c1 (racemic) has a reported IC50 of 24.7

O=C(NCc1cccnc1)C1CCc2c(sc3ncnc(Nc4ccc5[nH]ncc5c4)c23)C1 (racemic) [Example 76] has a reported IC50 of 5.1

Cn1cncc1CNC(=O)C1CCc2c(sc3ncnc(Nc4ccc5[nH]ncc5c4)c23)C1 (racemic) has a reported IC50 of 16.8

COc1cc2[nH]ncc2cc1Nc1ncnc2sc3c(c12)CCC(C(=O)N1CCC1)C3 (racemic) has a reported IC50 of 0.4

O=C(C1CCc2c(sc3ncnc(Nc4ccc5[nH]ncc5c4)c23)C1)N1CC(O)C1 (racemic) has a reported IC50 of 14.4

CN(C)CCN(C)C(=O)C1CCc2c(sc3ncnc(Nc4ccc5[nH]ncc5c4)c23)C1 (stereo not drawn) has a reported IC50 of 9

COc1cc2[nH]ncc2cc1Nc1ncnc2sc3c(c12)CCC(C(=O)NC(C)C)C3 (racemic) has a reported IC50 of 1.6

O=C(NCc1ccccc1)C1CCc2c(sc3ncnc(Nc4ccc5[nH]ncc5c4)c23)C1 (stereo not drawn) has a reported IC50 of 3

CCN(CCO)C(=O)C1CCc2c(sc3ncnc(Nc4cc5cn[nH]c5cc4OC(C)C)c23)C1 (racemic) has a reported IC50 of 0.3

O=C(C1CCc2c(sc3ncnc(Nc4ccc5[nH]ncc5c4)c23)C1)N1CCC1 (stereo not drawn) has a reported IC50 of 9

O=C(C1CCc2c(sc3ncnc(Nc4ccc5[nH]ncc5c4)c23)C1)N1CC[C@@H](O)C1 (mixture of isomers) has a reported IC50 of 12.7

CN(C)C(=O)C1CCc2c(sc3ncnc(Nc4cc5cn[nH]c5cc4OCCCl)c23)C1 (racemic) has a reported IC50 of 1.2

CN(C)C(=O)CN(C)C(=O)C1CCc2c(sc3ncnc(Nc4ccc5[nH]ncc5c4)c23)C1 (racemic) has a reported IC50 of 8.3

CCOc1cc2[nH]ncc2cc1Nc1ncnc2sc3c(c12)CCC(C(=O)N(C)C(C)C)C3 (racemic) has a reported IC50 of 0.6

CCOC(=O)C1CCc2c(sc3ncnc(Nc4ccc5[nH]ncc5c4)c23)C1 (stereo not drawn) has a reported IC50 of 16

CN(Cc1cnn(C)c1)C(=O)C1CCc2c(sc3ncnc(Nc4ccc5[nH]ncc5c4)c23)C1 (racemic) has a reported IC50 of 38.1

CCOC(=O)C1CCc2c(sc3ncnc(Nc4cc5cn[nH]c5cc4Cl)c23)C1 (stereo not drawn) has a reported IC50 of 9

CN(C)CCNC(=O)C1CCc2c(sc3ncnc(Nc4ccc5[nH]ncc5c4)c23)C1 (stereo not drawn) has a reported IC50 of 6

CCOc1cc2[nH]ncc2cc1Nc1ncnc2sc3c(c12)CCC(C(=O)N1CC[C@@H](O)C1)C3 (mixture of isomers) has a reported IC50 of 0.5

CC(C)Oc1cc2[nH]ncc2cc1Nc1ncnc2sc3c(c12)CCC(C(=O)N(C)CCO)C3 (racemic) has a reported IC50 of 0.2

CC(=O)N1CCN(C(=O)C2CCc3c(sc4ncnc(Nc5ccc6[nH]ncc6c5)c34)C2)CC1 (racemic) has a reported IC50 of 20.3

CCOc1cc2[nH]ncc2cc1Nc1ncnc2sc3c(c12)CCC(C(=O)N1CCCCC1)C3 (racemic) has a reported IC50 of 0.7

---

Can you tell me IC50 for the items I'm about to list?
system-under-test: human full-length MKNK1 (Homo sapiens, UniProt Q9BUB5, T385D)
Construct: GST (N); purchased Carna Biosciences 02-145; host or cells: insect cells (baculovirus expression system)
protocol-notes: MKNK1 kinase high ATP assay (TR-FRET)
Type: biochemical
recorded-conditions: 2 mM ATP, after preincubation with MKNK1; read-out: MKNK1 IC50 (MKNK1 high ATP)
Could you give me the number in nM? Just the number is fine.

O=C(C1CCc2c(sc3ncnc(Nc4ccc5[nH]ncc5c4)c23)C1)N1CCN2CCCCC2C1 (racemic) has a reported IC50 of 15.1

CC(C)Oc1cc2[nH]ncc2cc1Nc1ncnc2sc3c(c12)CCC(C(=O)N1CCC2(CC2)C1)C3 (racemic) has a reported IC50 of 2.3

COc1cccc(NC(=O)C2CCc3c(sc4ncnc(Nc5ccc6[nH]ncc6c5)c34)C2)c1 (stereo not shown) has a reported IC50 of 7

CN(CCCO)C(=O)C1CCc2c(sc3ncnc(Nc4ccc5[nH]ncc5c4)c23)C1 (racemic) has a reported IC50 of 15

CC1CCN(CCN(C)C(=O)C2CCc3c(sc4ncnc(Nc5ccc6[nH]ncc6c5)c34)C2)CC1 (racemic) has a reported IC50 of 11.1

Cn1cc(CNC(=O)C2CCc3c(sc4ncnc(Nc5ccc6[nH]ncc6c5)c34)C2)cn1 (racemic) has a reported IC50 of 16.5

O=C(NCCN1CCOCC1)C1CCc2c(sc3ncnc(Nc4ccc5[nH]ncc5c4)c23)C1 (stereo not shown) has a reported IC50 of 9

---

system-under-test: human full-length MKNK1 (Homo sapiens, UniProt Q9BUB5, T385D)
Construct: GST (N); purchased Carna Biosciences 02-145; host or cells: insect cells (baculovirus expression system)
protocol-notes: MKNK1 kinase high ATP assay (TR-FRET)
Format: biochemical
recorded-conditions: 2 mM ATP, after preincubation with MKNK1; read-out: MKNK1 IC50 (MKNK1 high ATP)
Can you tell me IC50 for the items I'm about to list?
Could you give me the number in nM? Just the number is fine.

CC(C)Oc1cc2[nH]ncc2cc1Nc1ncnc2sc3c(c12)CCC(C(=O)N1CC2(CCO2)C1)C3 (racemic) [Example 259] has a reported IC50 of 1.9

CN(CCN1CCCC1)C(=O)C1CCc2c(sc3ncnc(Nc4ccc5[nH]ncc5c4)c23)C1 (racemic) [Example 167] has a reported IC50 of 14.9

C#CCN(C)C(=O)C1CCc2c(sc3ncnc(Nc4ccc5[nH]ncc5c4)c23)C1 (stereo not shown) [Example 35] has a reported IC50 of 5

O=C(C1CCc2c(sc3ncnc(Nc4ccc5[nH]ncc5c4)c23)C1)N1CCC(O)CC1 (racemic) [Example 85] has a reported IC50 of 11.7

CCOc1cc2[nH]ncc2cc1Nc1ncnc2sc3c(c12)CCC(C(=O)N(CC)CCOC)C3 (racemic) [Example 273] has a reported IC50 of 0.2

Cn1nccc1CNC(=O)C1CCc2c(sc3ncnc(Nc4ccc5[nH]ncc5c4)c23)C1 (racemic) [Example 136] has a reported IC50 of 7.6

CC(=O)N(C)C1CCN(C(=O)C2CCc3c(sc4ncnc(Nc5ccc6[nH]ncc6c5)c34)C2)C1 (racemic) [Example 198] has a reported IC50 of 10
